Each entry below carries its recorded IC50.
- target desc: Syk (spleen tyrosine kinase) (Homo sapiens, UniProt P43405)

{"columns": ["molecule", "IC50"],
 "data": [
  ["O=c1cc(-c2ccc(O)cc2)oc2c([C@@H]3O[C@H](CO)[C@@H](O)[C@H](O)[C@H]3O)c(O)c([C@@H]3O[C@H](CO)[C@@H](O)[C@H](O)[C@H]3O)c(O)c12", "0.284 µM"],
  ["CC1=CC(=O)CC(C)(C)[C@@]1(O)/C=C/[C@@H](C)O[C@@H]1O[C@H](CO)[C@@H](O)[C@H](O)[C@H]1O [RosS, roseoside]", "0.16 µM"],
  ["O=C(/C=C/c1ccc(O)c(O)c1)O[C@H](Cc1ccc(O)c(O)c1)C(=O)O", "0.114 µM"]
]}

Data origin: paper PMC7671475
